Molecular target: PPAR-delta ligand binding domain fused to GAL4 DNA binding domain (UniProt Q03181)
Sequence (Q03181 1-441): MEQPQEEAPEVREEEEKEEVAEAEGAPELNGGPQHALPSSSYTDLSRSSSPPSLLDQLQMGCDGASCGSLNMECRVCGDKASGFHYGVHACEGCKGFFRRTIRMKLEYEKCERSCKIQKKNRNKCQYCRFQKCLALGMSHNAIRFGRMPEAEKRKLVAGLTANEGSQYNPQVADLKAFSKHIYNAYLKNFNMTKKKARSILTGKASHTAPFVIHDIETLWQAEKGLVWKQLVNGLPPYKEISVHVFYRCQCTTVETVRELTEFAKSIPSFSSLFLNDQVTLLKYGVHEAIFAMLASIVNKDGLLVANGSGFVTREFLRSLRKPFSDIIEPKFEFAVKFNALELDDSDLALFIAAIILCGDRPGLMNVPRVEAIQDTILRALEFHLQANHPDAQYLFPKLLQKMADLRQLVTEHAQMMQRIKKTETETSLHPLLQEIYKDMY
Assay: Transient transfection transactivation assay in CV-1 cells, PPAR-delta (GAL4 chimera, luciferase reporter)
Conditions: 20-24 hours
pEC50: −log10 of the molar value.
Here, each record is paired with measured pEC50 data.

The examples below pair each entry with its known result.
C[C@@H]1CN(C(=O)c2ccc(OC(F)(F)F)cc2)C[C@H](C)N1S(=O)(=O)c1cccc2c1CC(C(=O)O)C2 (some centres unmarked): 4.00 to 5.30
C[C@@H]1CN(C(=O)CCc2ccc(OC(F)(F)F)cc2)C[C@H](C)N1S(=O)(=O)c1cccc2c1CC(C(=O)O)C2 (some centres unmarked): > 5.30
O=C(O)C1Cc2cccc(S(=O)(=O)N3CCN(Cc4cccc(OC(F)(F)F)c4)CC3)c2C1 (centres unmarked): > 5.30

Query: Please indicate recorded pEC50 of C[C@@H]1CN(Cc2cccc(OC(F)(F)F)c2)C[C@H](C)N1S(=O)(=O)c1cccc2c1CC(C(=O)O)C2 (some centres unmarked) measured with PPAR-delta ligand binding domain fused to GAL4 DNA binding domain (UniProt Q03181).
Reply: > 5.30

FYI, the data here is from patent US20070270434A1.
